Where do these numbers come from? They come from patent US6806276B2.

# measurement target: human peripheral type cannabinoid receptor (hCB2) (Homo sapiens)
# Construct: expressed in transfected cells; host or cells: CHO cells
# Sequence (P34972 whole entry): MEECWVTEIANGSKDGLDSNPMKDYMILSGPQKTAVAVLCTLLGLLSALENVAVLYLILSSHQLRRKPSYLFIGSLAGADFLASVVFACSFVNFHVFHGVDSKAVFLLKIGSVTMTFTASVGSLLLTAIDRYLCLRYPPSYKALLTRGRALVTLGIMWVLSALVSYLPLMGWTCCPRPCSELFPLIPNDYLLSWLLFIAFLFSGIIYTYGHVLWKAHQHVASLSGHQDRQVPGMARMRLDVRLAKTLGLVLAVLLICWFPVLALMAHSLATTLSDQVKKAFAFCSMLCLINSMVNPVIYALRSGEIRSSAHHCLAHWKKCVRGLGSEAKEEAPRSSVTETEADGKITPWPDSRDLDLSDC
# method summary: Binding assay (in vitro), [3H]Win55212-2 displacement, membrane fractions of human CB2-CHO
# condition: indicator of selectivity for peripheral type receptors
Label TRUE for high-side C/S (Ki central type receptors / Ki peripheral type receptors) (at or above 1000) and FALSE for low-side C/S (Ki central type receptors / Ki peripheral type receptors) (below it).

mol smiles	answer label
CCCCCOc1cc2cc(C(=O)O)c(=O)n(C)c2cc1OC	FALSE

Enquiry: Has CCOc1c(OC)ccc2cc(CN3CCOCC3)c(=O)[nH]c12 a recorded C/S (Ki central type receptors / Ki peripheral type receptors) greater than or equal to 1000?
Return: TRUE

Enquiry: Has CCCOc1c(OC)ccc2cc(C(=O)O)c(=O)[nH]c12 a recorded C/S (Ki central type receptors / Ki peripheral type receptors) greater than or equal to 1000?
Return: TRUE
